Origin of values: patent US4156724A

# Tested on: Staphylococcus aureus 209 P
# TEST_DETAILS: Minimum Inhibitory Concentration, Staphylococcus aureus 209 P
# Type: cell-based
# EXPERIMENTAL_SETUP: Staphylococcus aureus 209 P
# Description: anti-microbial activity tests were carried out on the compounds obtained in the Examples.
Provide the recorded Minimum Inhibitory Concentration for the entries that follow.
Numbers only; they are read as µg/mL.

input: // returns reported Minimum Inhibitory Concentration for input CN(C)c1ccc2ncc(C(=O)NC(C(=O)NC3C(=O)N4C(C(=O)[O-])=C(CSc5nnnn5C)CSC34)c3ccc(NC(N)=O)cc3)c(O)c2n1.[Na+] (centres unmarked)
output: 0.78

input: // returns reported Minimum Inhibitory Concentration for input CC(=O)OCC1=C(C(=O)[O-])N2C(=O)C(NC(=O)C(NC(=O)c3cnc4cccnc4c3O)c3cc(Cl)c(O)c(Cl)c3)C2SC1.[Na+] (centres unmarked)
output: 3.13

input: // returns reported Minimum Inhibitory Concentration for input CC(=O)OCC1=C(C(=O)[O-])N2C(=O)C(NC(=O)C(NC(=O)c3cnc4cccnc4c3O)c3ccc(O)c(O)c3)C2SC1.[Na+] (centres unmarked)
output: 1.56

input: // returns reported Minimum Inhibitory Concentration for input CC(=O)OCC1=C(C(=O)[O-])N2C(=O)C(NC(=O)C(NC(=O)c3cnc4cncnc4c3O)c3ccc(O)cc3)C2SC1.[Na+] (centres unmarked)
output: 0.78

input: // returns reported Minimum Inhibitory Concentration for input CSc1ncc2c(O)c(C(=O)NC(C(=O)NC3C(=O)N4C(C(=O)[O-])=C(COC(C)=O)CSC34)c3ccc(O)cc3)cnc2n1.[Na+] (centres unmarked)
output: 1.56

input: // returns reported Minimum Inhibitory Concentration for input CC(=O)OCC1=C(C(=O)[O-])N2C(=O)C(NC(=O)C(NC(=O)c3cnc4cccnc4c3O)c3ccc(O)c(F)c3)C2SC1.[Na+] (centres unmarked)
output: 0.78

input: // returns reported Minimum Inhibitory Concentration for input COc1cc(C(NC(=O)c2cnc3cccnc3c2O)C(=O)NC2C(=O)N3C(C(=O)[O-])=C(COC(C)=O)CSC23)ccc1O.[Na+] (centres unmarked)
output: 3.13

input: // returns reported Minimum Inhibitory Concentration for input CC(=O)OCC1=C(C(=O)[O-])N2C(=O)C(NC(=O)C(NC(=O)c3cnc4cccnc4c3O)c3cccc(O)c3)C2SC1.[Na+] (centres unmarked)
output: 0.78
